- Tested on: NCI-H522
- ASSAY DETAILS: NCI tumour cell line growth inhibition, 48 h
Calls of active or inactive are those of the source. Rule as the data show it: active = GI50 up to about 1.1 µM and inactive = higher.
In this section we review reported GI50 values for a set of compounds.
ASSAY READOUT: GI50

compound=CCOc1ccc(/N=C/C=C(\Cl)c2ccc3ccccc3c2)cc1 result="19.5 µM (inactive)"
compound=O=Cc1cn(CCCCCCCCCCCCn2cc(C=O)c3ccccc32)c2ccccc12 result="38.3 µM (inactive)"
compound="CCCCCCCCCCCCC(Br)C(=O)SCCNC(=O)CCNC(=O)[C@@H](O)C(C)(C)COP(=O)(O)OP(=O)(O)OCC1OC(n2cnc3c(N)ncnc32)C(O)C1OP(=O)(O)O (stereo partly specified)" result="> 56.5 µM (inactive)"
compound=C[N+](C)(C)CCOP(=O)([O-])OCCNC(=O)c1ccc2ccccc2c1 result="> 100 µM (inactive)"
compound=N=C(N)NS(=O)(=O)c1ccc(Nc2c3ccccc3nc3c(C(=O)NC(CO)(CO)CO)cccc23)cc1 result="11.7 µM (inactive)"
compound=COc1cc2c(cc1OC)[C@H](C)N1CCc3cc(OC)c(OC)cc3[C@@H]1C2 result="> 100 µM (inactive)"

These measurements were taken from ChEMBL document CHEMBL1201862.
